These entries and their values trace back to patent US20050282739A1.

target: T1, human melanocortin-3 receptor (hMC3-R) (human, UniProt P41968 1-323); experiment: 125I-NDP-α-MSH competition, hMC3-R membranes
T1 construct: whole, on cells; membranes prepared from hMC3-R cells were used; also called Melanocortin Receptor 3
T1 sequence (P41968 whole entry): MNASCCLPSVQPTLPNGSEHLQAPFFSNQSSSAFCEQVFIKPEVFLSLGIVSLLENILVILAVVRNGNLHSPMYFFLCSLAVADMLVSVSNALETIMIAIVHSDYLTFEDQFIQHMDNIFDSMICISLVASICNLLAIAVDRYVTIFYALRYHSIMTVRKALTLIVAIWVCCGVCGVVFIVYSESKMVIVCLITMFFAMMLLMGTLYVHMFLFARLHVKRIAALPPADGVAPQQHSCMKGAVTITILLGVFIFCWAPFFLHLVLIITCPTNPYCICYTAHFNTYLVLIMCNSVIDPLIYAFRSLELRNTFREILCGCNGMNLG
Square brackets hold non-standard residues; d marks the D form. Ends that are not written are not given here. Nle = CCCC[C@H](N)C(=O)O
reported_endpoint: % Inhibition at 1 µM (%)
Note: unit % is implicit; provide only the numeric part.

Consider the reported % Inhibition at 1 µM for these binders:
Prompt: Specify measured % Inhibition at 1 µM for YVC[Nle]GHFRWDRF-NH2 (bridge (positions not given here); not fully specified (bridges); printed as Tyr-Val-Cys-Nle-Gly-His-Phe-Arg-Trp-Asp-Arg-Phe-NH2.; also: oxorhenium(V) N3S1 complex) [metallopeptide 4-10] .
Response: 10

Prompt: Specify measured % Inhibition at 1 µM for Ac-SYS[Nle]EHFRW[dC]GKPV-NH2 (also: oxorhenium(V) N3S1 chelate at D-Cys10) [metallopeptide 2-5] .
Response: 0

Prompt: Specify measured % Inhibition at 1 µM for Ac-SYS[Nle]EH[dC]FRWGKPV-NH2 (also: oxorhenium(V) N3S1 chelate at D-Cys 7) [metallopeptide 2-8] .
Response: 0

---
Prompt: Specify measured % Inhibition at 1 µM for Ac-SYS[Nle]EHFRWGK[dC]PV-NH2 (also: oxorhenium(V) N3S1 chelate at D-Cys12) [metallopeptide 2-3] .
Response: 41

Prompt: Specify measured % Inhibition at 1 µM for YV[Nle]GHFRWDRCF-NH2 (also: oxorhenium(V) N3S1 chelate: C11 SG + backbone N of D9, R10, C11, bridge at 11 via Re(V)=O, other end not in the chain) [metallopeptide 4-2] .
Response: 49

Prompt: Specify measured % Inhibition at 1 µM for YV[Nle]GHFRWDCRF-NH2 (also: oxorhenium(V) N3S1 chelate: C10 SG + backbone N of W8, D9, C10, bridge at 10 via Re(V)=O, other end not in the chain) [metallopeptide 4-3] .
Response: 18

Prompt: Specify measured % Inhibition at 1 µM for Ac-SYS[Nle]EHFRWGKG[dC]V-NH2 (also: oxorhenium(V) N3S1 chelate at D-Cys13) [metallopeptide 2-2] .
Response: 26

Prompt: Specify measured % Inhibition at 1 µM for YV[Nle]GHCFRWDRF-NH2 (also: oxorhenium(V) N3S1 chelate: C6 SG + backbone N of G4, H5, C6, bridge at 6 via Re(V)=O, other end not in the chain) [metallopeptide 4-7] .
Response: 17

Prompt: Specify measured % Inhibition at 1 µM for Ac-SYS[Nle][dC]EHFRWGKPV-NH2 (also: oxorhenium(V) N3S1 chelate at D-Cys5) [metallopeptide 2-10] .
Response: 0

Prompt: Specify measured % Inhibition at 1 µM for Ac-SYS[Nle]EHFR[dC]WGKPV-NH2 (also: oxorhenium(V) N3S1 chelate at D-Cys9) [metallopeptide 2-6] .
Response: 2

Prompt: Specify measured % Inhibition at 1 µM for YV[Nle]GHFRCWDRF-NH2 (also: oxorhenium(V) N3S1 chelate: C8 SG + backbone N of F6, R7, C8, bridge at 8 via Re(V)=O, other end not in the chain) [metallopeptide 4-5] .
Response: 87

Prompt: Specify measured % Inhibition at 1 µM for YVXGHFRWDRF (Nle 3; C-terminal amide, not complexed to Re) [[Nle3]-γ-MSH parent polypeptide Tyr-Val-Nle-Gly-His-Phe-Arg-Trp-Asp-Arg-Phe-NH2] .
Response: 85

Prompt: Specify measured % Inhibition at 1 µM for YV[Nle]GHFRWCDRF-NH2 (also: oxorhenium(V) N3S1 chelate: C9 SG + backbone N of R7, W8, C9, bridge at 9 via Re(V)=O, other end not in the chain) [metallopeptide 4-4] .
Response: 20

Prompt: Specify measured % Inhibition at 1 µM for Ac-SYS[Nle]EHF[dC]RWGKPV-NH2 (also: oxorhenium(V) N3S1 chelate at D-Cys8) [metallopeptide 2-7] .
Response: 0

Prompt: Specify measured % Inhibition at 1 µM for YV[Nle]GCHFRWDRF-NH2 (also: oxorhenium(V) N3S1 chelate: C5 SG + backbone N of X3, G4, C5, bridge at 5 via Re(V)=O, other end not in the chain) [metallopeptide 4-8] .
Response: 33

Prompt: Specify measured % Inhibition at 1 µM for Ac-SY[dC]S[Nle]EHFRWGKPV-NH2 (also: oxorhenium(V) N3S1 chelate at D-Cys3) [metallopeptide 2-12] .
Response: 21

Prompt: Specify measured % Inhibition at 1 µM for Ac-SYS[Nle]E[dC]HFRWGKPV-NH2 (also: oxorhenium(V) N3S1 chelate at D-Cys 6) [metallopeptide 2-9] .
Response: 13
